# TARGET_OR_TEST_SYSTEM: human β-Secretase (Homo sapiens)
# Construct: soluble part of the human β-Secretase (AA 1-AA 460); Fc domain of IgG1 (C); made in house
# TEST_DESCRIPTION: TR-FRET assay (β-secretase enzyme, sBACE-Fc)
# Format: biochemical
# CONDITIONS: soluble human β-secretase (AA 1-460) Fc fusion, substrate (Europium)CEVNLDAEFK(Qsy7) 100 nM, pH 4.5; unit inferred, nM taken
MEASUREMENT_TYPE: IC50 (nM)

NC1=NC(c2cccc(-c3cncnc3)c2)(c2ccnc(OC=C(F)F)c2)c2cccnc21 (centres unmarked) [Example 17] = 1140
NC1=NC(c2ccnc(C(F)(F)F)c2)(c2ccc(O)c(-c3ccccc3F)c2)c2cccnc21 (centres unmarked) [Example 38] = 658
Cc1cc(C2(c3cccc(-c4cncc(C#N)c4)c3)N=C(N)c3ncccc32)cc(C)n1 (centres unmarked) [Example 5] = 2400
Cc1cc(C2(c3cccc(-c4cnccn4)c3)N=C(N)c3ncccc32)cc(C)c1OC(F)F (centres unmarked) [Example 13] = 38
N#Cc1ccnc(-c2cccc(C3(c4ccnc(C(F)(F)F)c4)N=C(N)c4ncccc43)c2)c1 (centres unmarked) [Example 22] = 1800
COc1ccc(C2(c3cccc(-c4cncnc4)c3)N=C(N)c3ncc(C)cc32)cc1 (centres unmarked) [Example 11] = 2120

P. Cc1cc(C2(c3cccc(-c4cncnc4)c3)N=C(N)c3ncccc32)cc(C)n1 (centres unmarked) [Example 4]
Q. NC1=NC(c2cccc(-c3cncnc3)c2)(c2ccc(OC(F)F)c(C3CC3)c2)c2cccnc21 (centres unmarked) [Example 9, acetic acid]
Query string: Given P and Q , report the one with the higher recorded IC50. # answer = label of selected item
Result string: P
(P: 1800 nM, Q: 33 nM)

====

# TARGET_OR_TEST_SYSTEM: human β-Secretase (Homo sapiens, UniProt P56817)
# Construct: soluble part of the human β-Secretase (AA 1-AA 460); Fc domain of IgG1 (C); made in house
# Sequence (P56817 22-460): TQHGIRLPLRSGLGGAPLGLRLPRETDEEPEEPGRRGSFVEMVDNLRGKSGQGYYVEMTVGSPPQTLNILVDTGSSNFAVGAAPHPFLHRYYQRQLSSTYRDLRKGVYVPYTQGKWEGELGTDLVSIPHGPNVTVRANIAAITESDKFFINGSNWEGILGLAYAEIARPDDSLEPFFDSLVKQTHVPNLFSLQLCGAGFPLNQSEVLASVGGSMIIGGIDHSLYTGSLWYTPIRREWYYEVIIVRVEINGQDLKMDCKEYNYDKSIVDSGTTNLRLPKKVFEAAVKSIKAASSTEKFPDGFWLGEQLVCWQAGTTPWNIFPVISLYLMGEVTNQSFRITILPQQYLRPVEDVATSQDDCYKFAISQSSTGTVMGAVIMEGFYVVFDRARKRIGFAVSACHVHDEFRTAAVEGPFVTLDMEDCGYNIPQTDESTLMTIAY
# TEST_DESCRIPTION: TR-FRET assay (β-secretase enzyme, sBACE-Fc)
# Type: biochemical
# CONDITIONS: soluble human β-secretase (AA 1-460) Fc fusion, substrate (Europium)CEVNLDAEFK(Qsy7) 100 nM, pH 4.5; unit inferred, nM taken
MEASUREMENT_TYPE: IC50 (nM)

# example entries with known answers
COc1c(F)cc(C2(c3ccc(F)c(-c4cncnc4)c3)N=C(N)c3ncccc32)cc1F (stereo not shown) [Example 6] = 156
NC1=NC(c2cccc(-c3cncc(Cl)c3)c2)(c2ccnc(C(F)(F)F)c2)c2cccnc21 (stereo not shown) [Example 21] = 239
COc1ccc(C2(c3cccc(-c4cncnc4)c3)N=C(N)c3ncccc32)cc1C(F)F (stereo not shown) [Example 24] = 212
Cc1cc(C2(c3cccc(-c4cncnc4)c3)N=C(N)c3ncc(Cl)cc32)ccn1 (stereo not shown) [Example 10] = 639
NC1=NC(c2cccc(-c3cncnc3)c2)(c2ccc(OC(F)F)c(CCF)c2)c2cccnc21 (stereo not shown) [Example 34] = 30

I. NC1=NC(c2cccc(-c3cccc(Cl)c3)c2)(c2ccnc(C(F)(F)F)c2)c2cccnc21 (stereo not shown) [Example 1]
II. Cc1cc(C2(c3cccc(-c4cncnc4)c3)N=C(N)c3ncccc32)cc(C)c1F (stereo not shown) [Example 14]
Query string: Min IC50? I | II # answer = label of selected item
Result string: I

====

# TARGET_OR_TEST_SYSTEM: human β-Secretase (Homo sapiens, UniProt P56817)
# Construct: soluble part of the human β-Secretase (AA 1-AA 460); Fc domain of IgG1 (C); made in house
# TEST_DESCRIPTION: TR-FRET assay (β-secretase enzyme, sBACE-Fc)
# Format: biochemical
# CONDITIONS: soluble human β-secretase (AA 1-460) Fc fusion, substrate (Europium)CEVNLDAEFK(Qsy7) 100 nM, pH 4.5; unit inferred, nM taken
# Protocol: The β-secretase enzyme used in the TR-FRET is prepared as follows: The cDNA for the soluble part of the human β-Secretase (AA 1-AA 460) was cloned using the ASP2-Fc10-1-IRES-GFP-neoK mammalian expression vector. The gene was fused to the Fc domain of IgG1 (affinity tag) and stably cloned into HEK 293 cells. […]
MEASUREMENT_TYPE: IC50 (nM)

Cc1cc(C2(c3cccc(-c4cnccn4)c3)N=C(N)c3ncccc32)cc(C)c1OCF (stereo not shown) [Example 27] = 90
Cc1cc(C2(c3ccnc(-c4cncnc4)c3)N=C(N)c3ncccc32)cc(C)c1OC(F)F (stereo not shown) [Example 29] = 106

1. Cc1cc(C2(c3ccnc(-c4cncnc4)c3)N=C(N)c3ncccc32)cc(C2CC2)c1OC(F)F (stereo not shown) [Example 30]
2. Cc1cc(C2(c3cccc(-c4cncnc4)c3)N=C(N)c3ncccc32)cc(C)c1OCF (stereo not shown) [Example 26]
Query string: Min IC50? 1 | 2 # answer = label of selected item
Result string: 2
(2: 42 nM, 1: 119 nM)

====

# TARGET_OR_TEST_SYSTEM: human β-Secretase (Homo sapiens, UniProt P56817)
# Construct: soluble part of the human β-Secretase (AA 1-AA 460); Fc domain of IgG1 (C); made in house
# TEST_DESCRIPTION: TR-FRET assay (β-secretase enzyme, sBACE-Fc)
# Type: biochemical
# CONDITIONS: soluble human β-secretase (AA 1-460) Fc fusion, substrate (Europium)CEVNLDAEFK(Qsy7) 100 nM, pH 4.5; unit inferred, nM taken
Structures can show the parent of a compound that is named as a salt.
MEASUREMENT_TYPE: IC50 (nM)

# example entries with known answers
COc1ccc(C2(c3cccc(-c4cnccn4)c3)N=C(N)c3ncccc32)cc1Cl (stereo not shown) = 610
COc1c(C)cc(C2(c3cccc(-c4cncnc4)c3)N=C(N)c3ncccc32)nc1C (stereo not shown) = 125
NC1=NC(c2cccc(-c3cncnc3)c2)(c2ccnc(C(F)(F)F)c2)c2cccnc21 (stereo not shown) [Example 2] = 350

I. COc1c(C)cc(C2(c3cccc(-c4cnccn4)c3)N=C(N)c3ncccc32)cc1F (stereo not shown) [Example 15, trifluoroacetic acid salt]
II. Cc1cc(C2(c3cccc(-c4cncnc4)c3)N=C(N)c3ncccc32)cc(C(F)F)n1 (stereo not shown)
III. Cc1cc(C2(c3ccccc3)N=C(N)c3ncccc32)cc(C2CC2)c1OC(F)F (stereo not shown)
IV. COc1ccc(C2(c3cccc(-c4cnccn4)c3)N=C(N)c3ncccc32)cc1C(F)F (stereo not shown)
Query string: Sort ascending by IC50. Dear reader, please state the labels in the requested order.
Result string: I, IV, II, III

====

# TARGET_OR_TEST_SYSTEM: human β-Secretase (Homo sapiens, UniProt P56817)
# Construct: soluble part of the human β-Secretase (AA 1-AA 460); Fc domain of IgG1 (C); made in house
# TEST_DESCRIPTION: TR-FRET assay (β-secretase enzyme, sBACE-Fc)
# Format: biochemical
# CONDITIONS: soluble human β-secretase (AA 1-460) Fc fusion, substrate (Europium)CEVNLDAEFK(Qsy7) 100 nM, pH 4.5; unit inferred, nM taken
MEASUREMENT_TYPE: IC50 (nM)

COc1ccc(C2(c3cccc(-c4cncnc4)c3)N=C(N)c3ncccc32)cc1C1CC1 (stereo not shown) = 222
NC1=NC(c2cccc(-c3cncnc3)c2)(c2ccnc(C(F)(F)F)c2)c2cccnc21 (single isomer, unassigned) [25, Isomer 2] = 176
COc1ccc(C2(c3cccc(-c4cncnc4)c3)N=C(N)c3ncccc32)cc1Cl (stereo not shown) = 248

====

# TARGET_OR_TEST_SYSTEM: human β-Secretase (Homo sapiens, UniProt P56817)
# Construct: soluble part of the human β-Secretase (AA 1-AA 460); Fc domain of IgG1 (C); made in house
# TEST_DESCRIPTION: TR-FRET assay (β-secretase enzyme, sBACE-Fc)
# Assay type: biochemical
# CONDITIONS: soluble human β-secretase (AA 1-460) Fc fusion, substrate (Europium)CEVNLDAEFK(Qsy7) 100 nM, pH 4.5; unit inferred, nM taken
MEASUREMENT_TYPE: IC50 (nM)

a. COc1ccc(F)c(-c2cc(C3(c4ccnc(C(F)(F)F)c4)N=C(N)c4ncccc43)ccc2O)c1 (stereo not drawn)
b. COc1c(C)cc(C2(c3cccc(-c4cncnc4)c3)N=C(N)c3ncccc32)cc1F (stereo not drawn)
Query string: Min IC50? a | b # answer = label of selected item
Result string: b
(b: 41 nM, a: 206 nM)

A. NC1=NC(c2cccc(-c3cncnc3)c2)(c2ccc(OC(F)F)c(F)c2)c2cccnc21 (stereo not drawn)
B. NC1=NC(c2cccc(-c3cncnc3)c2)(c2ccnc(OCC(F)(F)F)c2)c2cccnc21 (stereo not drawn)
Query string: Min IC50? A | B # answer = label of selected item
Result string: A
(A: 204 nM, B: 1600 nM)

a. Cc1cc(C2(c3cccc(C#N)c3)N=C(N)c3ncccc32)cc(C2CC2)c1OC(F)F (stereo not drawn)
b. COc1ccnc(-c2cccc(C3(c4ccnc(C(F)(F)F)c4)N=C(N)c4ncccc43)c2)c1 (stereo not drawn)
Query string: Min IC50? a | b # answer = label of selected item
Result string: a
